pEC50 listing for selected binders.
Target: T1, cynomolgus monkey CD40 on cells (cynomolgus monkey, UniProt G7PG38 21-278)
T1 construct: also called cyCD40; CHO-K1/cyCD40
T1 sequence (G7PG38 entry or part of it limits assumed): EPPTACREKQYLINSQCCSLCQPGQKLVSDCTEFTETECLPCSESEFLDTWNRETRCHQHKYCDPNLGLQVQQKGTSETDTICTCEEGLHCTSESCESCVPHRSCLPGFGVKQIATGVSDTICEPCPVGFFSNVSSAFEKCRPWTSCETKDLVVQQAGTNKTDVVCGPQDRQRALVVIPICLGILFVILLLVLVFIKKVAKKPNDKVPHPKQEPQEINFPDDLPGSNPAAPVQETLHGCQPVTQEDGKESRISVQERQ
Assay: FACS, CHO-K1/cyCD40 cells
Text: Flow cytometry (FACS) was used to detect the binding ability of the CD40 antibody to cells, such as, CHO-K1/hCD40 highly expressing human CD40 (constructed by Beijing Kyinno Biotechnology), CHO-K1/cyCD40 highly expressing cynomolgus monkey CD40 (constructed by Beijing Kyinno Biotechnology) and lymphoma cell highly expressing human CD40, Raji (ATCC, #CCL-86). […]
# pEC50 = -log10(concentration in molar units)

Known pEC50 results, listed for orientation:
Binder	pEC50
PR006507 (antibody, human IgG1, kappa, V domains shown, PR003379 variant L:S93E; human IgG1 L234A, L235A, G237A) VH: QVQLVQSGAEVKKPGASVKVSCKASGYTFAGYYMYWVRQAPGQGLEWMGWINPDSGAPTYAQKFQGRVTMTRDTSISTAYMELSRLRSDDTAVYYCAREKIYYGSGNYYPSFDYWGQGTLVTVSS VL: DIQLTQSPSFLSASVGDRVTITCRASQGISSYLAWYQQKPGKAPKLLIYAASTLQSGVPSRFSGSGSGTEFTLTISSLQPEDFATYYCQQLNEYPWTFGQGTKVEIKR	8.30
PR006493 (antibody, human IgG1, kappa, V domains shown, PR003379 variant L:N92L; human IgG1 L234A, L235A, G237A) VH: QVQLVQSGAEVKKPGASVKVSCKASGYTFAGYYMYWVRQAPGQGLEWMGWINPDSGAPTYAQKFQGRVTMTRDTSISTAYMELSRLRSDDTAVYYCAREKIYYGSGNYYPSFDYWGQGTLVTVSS VL: DIQLTQSPSFLSASVGDRVTITCRASQGISSYLAWYQQKPGKAPKLLIYAASTLQSGVPSRFSGSGSGTEFTLTISSLQPEDFATYYCQQLLSYPWTFGQGTKVEIKR	8.39
PR006501 (antibody, human IgG1, kappa, V domains shown, PR003379 variant L:N92Q; human IgG1 L234A, L235A, G237A) VH: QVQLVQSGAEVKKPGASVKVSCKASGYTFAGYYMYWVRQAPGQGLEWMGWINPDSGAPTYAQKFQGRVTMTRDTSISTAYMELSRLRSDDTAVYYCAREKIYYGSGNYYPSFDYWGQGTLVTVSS VL: DIQLTQSPSFLSASVGDRVTITCRASQGISSYLAWYQQKPGKAPKLLIYAASTLQSGVPSRFSGSGSGTEFTLTISSLQPEDFATYYCQQLQSYPWTFGQGTKVEIKR	8.38
PR006496 (antibody, human IgG1, kappa, V domains shown, PR003379 variant L:N92F; human IgG1 L234A, L235A, G237A) VH: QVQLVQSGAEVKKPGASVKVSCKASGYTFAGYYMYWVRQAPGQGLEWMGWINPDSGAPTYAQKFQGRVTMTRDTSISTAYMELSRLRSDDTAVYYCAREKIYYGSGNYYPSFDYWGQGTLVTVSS VL: DIQLTQSPSFLSASVGDRVTITCRASQGISSYLAWYQQKPGKAPKLLIYAASTLQSGVPSRFSGSGSGTEFTLTISSLQPEDFATYYCQQLFSYPWTFGQGTKVEIKR	8.46
PR006500 (antibody, human IgG1, kappa, V domains shown, PR003379 variant L:N92M; human IgG1 L234A, L235A, G237A) VH: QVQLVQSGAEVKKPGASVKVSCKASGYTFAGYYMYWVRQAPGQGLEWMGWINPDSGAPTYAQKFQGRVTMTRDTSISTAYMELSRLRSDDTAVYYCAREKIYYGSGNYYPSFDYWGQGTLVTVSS VL: DIQLTQSPSFLSASVGDRVTITCRASQGISSYLAWYQQKPGKAPKLLIYAASTLQSGVPSRFSGSGSGTEFTLTISSLQPEDFATYYCQQLMSYPWTFGQGTKVEIKR	8.36
PR006499 (antibody, human IgG1, kappa, V domains shown, PR003379 variant L:N92W; human IgG1 L234A, L235A, G237A) VH: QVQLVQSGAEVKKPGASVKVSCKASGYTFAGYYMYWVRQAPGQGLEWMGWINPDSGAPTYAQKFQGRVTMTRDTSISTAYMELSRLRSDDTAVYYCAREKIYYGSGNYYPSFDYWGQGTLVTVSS VL: DIQLTQSPSFLSASVGDRVTITCRASQGISSYLAWYQQKPGKAPKLLIYAASTLQSGVPSRFSGSGSGTEFTLTISSLQPEDFATYYCQQLWSYPWTFGQGTKVEIKR	8.49
PR006512 (antibody, human IgG1, kappa, V domains shown, PR003379 variant L:S93T; human IgG1 L234A, L235A, G237A) VH: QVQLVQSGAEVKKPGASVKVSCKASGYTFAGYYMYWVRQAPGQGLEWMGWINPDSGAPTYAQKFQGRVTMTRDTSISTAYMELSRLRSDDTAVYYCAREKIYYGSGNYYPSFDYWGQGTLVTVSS VL: DIQLTQSPSFLSASVGDRVTITCRASQGISSYLAWYQQKPGKAPKLLIYAASTLQSGVPSRFSGSGSGTEFTLTISSLQPEDFATYYCQQLNTYPWTFGQGTKVEIKR	8.34
PR006515 (antibody, human IgG1, kappa, V domains shown, PR003379 variant L:S93M; human IgG1 L234A, L235A, G237A) VH: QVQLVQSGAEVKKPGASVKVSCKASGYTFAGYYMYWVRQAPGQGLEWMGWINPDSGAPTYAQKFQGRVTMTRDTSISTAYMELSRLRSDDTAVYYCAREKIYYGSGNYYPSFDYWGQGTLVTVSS VL: DIQLTQSPSFLSASVGDRVTITCRASQGISSYLAWYQQKPGKAPKLLIYAASTLQSGVPSRFSGSGSGTEFTLTISSLQPEDFATYYCQQLNMYPWTFGQGTKVEIKR	8.43

Item PR006494 (antibody, human IgG1, kappa, V domains shown, PR003379 variant L:N92T; human IgG1 L234A, L235A, G237A) VH: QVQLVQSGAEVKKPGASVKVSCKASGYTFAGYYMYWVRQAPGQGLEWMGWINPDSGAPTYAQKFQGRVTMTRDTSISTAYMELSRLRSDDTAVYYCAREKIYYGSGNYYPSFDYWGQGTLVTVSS VL: DIQLTQSPSFLSASVGDRVTITCRASQGISSYLAWYQQKPGKAPKLLIYAASTLQSGVPSRFSGSGSGTEFTLTISSLQPEDFATYYCQQLTSYPWTFGQGTKVEIKR has what recorded pEC50?
8.39

// lookup pEC50 for PR006505 (antibody, human IgG1, kappa, V domains shown, PR003379 variant L:S93I; human IgG1 L234A, L235A, G237A) VH: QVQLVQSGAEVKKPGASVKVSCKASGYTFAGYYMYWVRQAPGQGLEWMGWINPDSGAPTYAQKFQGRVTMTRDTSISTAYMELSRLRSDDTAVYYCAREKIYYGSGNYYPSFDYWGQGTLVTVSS VL: DIQLTQSPSFLSASVGDRVTITCRASQGISSYLAWYQQKPGKAPKLLIYAASTLQSGVPSRFSGSGSGTEFTLTISSLQPEDFATYYCQQLNIYPWTFGQGTKVEIKR
8.34
